// values below are reported apparent KD of MS2 coat protein
- Tested on: MS2 coat protein
- Procedure Summary: apparent KD of MS2 coat protein; designed switch direction (-1 OFF switch, 1 ON switch): 1; higher = weaker reporter binding
- Details: input ligand: none
Dear colleague, please return just the value in µM, with no unit written.

AUCAAAGCGUGAGGAUAUAUGGGAACACGAGUCGUAGAAGGUACGUCAAUACAUGAGGAUCACCCAUGUAAAGAGGAGAACCUC [Eternabot solution 33] (Eterna round: R96, puzzle: Same State NG 1)	0.0452
CACAUGAGGAUCACCCAUGUGAGGCGGCAAUAAAGCCGCGCACAGGAUAUAGCGCUAUGAAUGCGCUAGAAGGGUGAUUAGAAC [Reines] (Eterna round: R96, puzzle: Same State NG 3)	0.0365

// next entry
-- ask Endpoint output: apparent KD of MS2 coat protein of UUAUCUCAGACAUGAGGAUCACCCAUGUGGUUUUGACUUAGACAGGAUAUAGUAGUAUCGAAAUACUAGAAGGGUCAUUUUAUU [JR_SSNG3_Sub022] (Eterna round: R96, puzzle: Same State NG 3) . Value?
-- reply 0.125

====

- Test system: MS2 coat protein
- Procedure Summary: apparent KD of MS2 coat protein; designed switch direction (-1 OFF switch, 1 ON switch): -1; higher = weaker reporter binding
- Details: input ligand: none
Assay Endpoint: apparent KD of MS2 coat protein (nM)
Dear colleague, please return just the value in nM, with no unit written.

The cases that follow already have their apparent KD of MS2 coat protein on record.
UUCAUGUUAGGAUAUUCCGCCACAGAGAAAGACUGUGGAAUGAAGAAGGGACAUGAGGAUCACCCAUGUUCCAA [EX4 A.5] (Eterna round: R97, puzzle: Exclusion 4)	14.3
UUUUUAUAUGAAGGAUAUACUUAACAUGAGGAUCACCCAUGUGGUGUUGUGAGUGAGUGAGUUUAGUAGAAGGUCAUUUCUUUU [JMF's solution 78] (Eterna round: R96, puzzle: Exclusion NG 2)	462
GCGGAAAACUUAGGAUAUCAGGGCUGCACAUGAGGAUCACCCAUGUGAUAGCUCUAACGCGGUCCUGAGAAGGGAGAGCCCGGA [Rarasoa] (Eterna round: R96, puzzle: Exclusion NG 2)	44.7
AAAAAACAAGCUUUUUGAAACAUGAGGAUCACCCAUGUCUUAUAAAAUAAAAAUAAAAAUAAAAAUAAAAUAAAAAA [Sensor V2: 80 Random] (Eterna round: R96, puzzle: Sensor v2, turn-off variant)	37.4
AAGAGCGUAGGAUAUACAUGAGGAUCACCCAUGUGUGGAGGACCUGGCCACAUAAGGAGUAGAAGGGCGCAUCU [Eternabot (L2) Solution 92] (Eterna round: R97, puzzle: Exclusion 3)	87
AGUACUAACACGUGUGUGUUAGUACAAUAAGCUUGUGAAACAUGAGGAUCACCCAUGUCCUCAUAAGCUCGUCUUAU [salish99_TOv2_r3_074] (Eterna round: R96, puzzle: Sensor v3, turn-off variant 2)	17.1

-- ask Endpoint output: apparent KD of MS2 coat protein of GGCCUGUGAGGAUAUUAGUAGUAGAUAAAAUAAACUAUUACUGAGAAGGCACAUGAGGAUCACCCAUGUUGGCC [Eli x4 4.05] (Eterna round: R97, puzzle: Exclusion 4) . Value?
-- reply 16.4

-- ask Endpoint output: apparent KD of MS2 coat protein of AAAAAACAUGAGGAUCACCCAUGUAAGGAUAUCUAAAAUAAAAGAAAAAUAAAGAAAAGGAGAAGGUACAAGGA [JL wbt mod 25] (Eterna round: R96, puzzle: Exclusion 1) . Value?
-- reply 29.8

-- ask Endpoint output: apparent KD of MS2 coat protein of AUAUUAGCAGGAUAUAUCCGGGAUAACAUGAGGAUCACCCAUGUGACCGCUUGAUAUCCUAUAGAAGGGCUUUAUA [Mod of ViennaUCT 29 - Jieux - Exclusion 5] (Eterna round: R97, puzzle: Exclusion 5) . Value?
-- reply 20.6

-- ask Endpoint output: apparent KD of MS2 coat protein of GCCUCACUUGAGGAUCACCCAAGUCAGGAUAUCUACAAGCCGGCCAUGCCAGCUUGCAAGAGAAGGGACUCUAA [Diazale] (Eterna round: R97, puzzle: Exclusion 1) . Value?
-- reply 31.6
